- assayed-system: HLA-A*24:02 molecule (Homo sapiens, UniProt P04439, D101N/D140Y/D185E/E176V/E190D/F33S/G103R/G107R/I119L/I121M/I306V/K335N/L105A/L180Q/L300P/N151K/N90K/Q86E/Q94H/R106L/R138H/R89G/T104I/T345S/V100E/W191G/Y123F)
- assay-text: Binding of peptide to HLA-A*24:02 molecule using C1R-A24 cells
- stated-conditions: Table 2; dissociation constant Kd value (−log Kd value); >−3.0 = no significant binding ability; read-out: Measured value of allele A*24:02 (converted)
- Description: Measurement of binding ability of a peptide to an HLA-A*24:02 molecule, which is a product of an HLA-A*24:02 gene, was performed using C1R-A24 cells expressing an HLA-A*24:02 molecule (Cells created by Professor Masafumi Takiguchi, Kumamoto University, was provided by Assistant Professor Masaki Yasukawa, Ehime University, with permission). […]
No end group written: not given here.

[
  {
    "macromolecule-sequence": "THLDAGTVE [compound 75]",
    "value-operator": ">",
    "Kd / µM": 1000
  },
  {
    "macromolecule-sequence": "ATAPPTAQL [compound 25]",
    "value-operator": "=",
    "Kd / µM": 29.2
  },
  {
    "macromolecule-sequence": "SSFEFFEEA [compound 37]",
    "value-operator": ">",
    "Kd / µM": 1000
  },
  {
    "macromolecule-sequence": "YTYDPPTTI [compound 3]",
    "value-operator": "=",
    "Kd / µM": 3.11
  },
  {
    "macromolecule-sequence": "LVEEHGATL [compound 43]",
    "value-operator": ">",
    "Kd / µM": 1000
  },
  {
    "macromolecule-sequence": "ISAYRTCWI [compound 34]",
    "value-operator": "=",
    "Kd / µM": 10
  },
  {
    "macromolecule-sequence": "SPDEFSNDF [compound 73]",
    "value-operator": ">",
    "Kd / µM": 1000
  },
  {
    "macromolecule-sequence": "LAEEHGATL [compound 61]",
    "value-operator": ">",
    "Kd / µM": 1000
  },
  {
    "macromolecule-sequence": "ATGDCSSFI [compound 59]",
    "value-operator": ">",
    "Kd / µM": 1000
  },
  {
    "macromolecule-sequence": "LIEEHGATL [compound 40]",
    "value-operator": ">",
    "Kd / µM": 1000
  },
  {
    "macromolecule-sequence": "ALPKIRARV [compound 12]",
    "value-operator": "=",
    "Kd / µM": 0.66
  },
  {
    "macromolecule-sequence": "KFLEAFHEV [compound 8]",
    "value-operator": "=",
    "Kd / µM": 0.133
  },
  {
    "macromolecule-sequence": "LTEEHGATL [compound 42]",
    "value-operator": ">",
    "Kd / µM": 1000
  },
  {
    "macromolecule-sequence": "CTDEHQWQL [compound 39]",
    "value-operator": ">",
    "Kd / µM": 1000
  },
  {
    "macromolecule-sequence": "HMTSSERPF [compound 64]",
    "value-operator": "=",
    "Kd / µM": 68.4
  }
]
